- System: EKVX NSCLC
- experimentDescription: NCI-60 one-dose screen, 48 h
- measurementContext: 10 µM
The panel holds about 83,000 compounds, 20% with a hit somewhere; the sample as a whole holds those more often. Active and inactive are the calls of the source. Rule for the calls: active = growth percent below 10; inactive = the rest.
Possible outcomes: 1.0 (active), 0.0 (inactive)

1) C=CCNc1nnc(C)s1 | 0.0
2) O=C(Cc1nc2ccc([N+](=O)[O-])cc2nc1CC(=O)c1cccnc1)c1cccnc1 | 0.0
3) CCOC(=O)Nc1nn[nH]n1 | 0.0
4) CC(C)OC(=O)c1cc(NC(=S)OC(C)C)ccc1Cl | 0.0
5) CC(=O)Nc1ccc(NC(C)=O)c2c1C(=O)c1ccccc1C2=O | 0.0
6) Nc1ncnc2c1nc(N)n2C1OC(CO)C(O)C1O (centres undefined) | 1.0
7) CC(=O)c1ccc(C(C)(C)C)cc1 | 0.0
8) Cc1ccc(Cl)cc1NC(=O)N(C)CCO | 0.0
9) CCn1c(=O)n(C)c2c(=O)n(C)c(=O)n(C)c21 | 0.0
10) COc1ccc2c(NCCCCCCCCNc3c4ccccc4nc4cc(OC)ccc34)c3ccccc3nc2c1 | 1.0
11) Oc1ccc(O)cc1 | 0.0
12) CCOC(=O)CSc1c([N+](=O)[O-])ncn1C | 0.0
13) COC(=O)Nc1nc2ccc(C(=O)c3cccs3)cc2[nH]1 | 0.0
14) CCOC(=O)C(O)C(O)C(=O)OCC (centres undefined) | 0.0

====

- System: OVCAR-8 ovarian
- experimentDescription: NCI-60 one-dose screen, 48 h (100 = growth as untreated, 0 = no growth, -100 = all killed)
- measurementContext: 10 µM
About 83,000 compounds went through this panel and 20% of them were active in at least one assay; those are over-represented in the sample as a whole.
reportedProperty: growth (%)

1. CCOC(=O)CCCS(C)(=O)=O | 108
2. O/N=C/c1ccc(O)cc1O | 94.1
3. COS(=O)(=O)c1ccc(Br)cc1 | 98.6
4. CC(C)(O)C#CC#CC(C)(C)O | 99.2
5. CC(C)=NNc1ccc([N+](=O)[O-])cc1[N+](=O)[O-] | 100
6. COC(=O)c1ccc(C(C)C)cc1 | 106
7. CN(C)/N=C/c1ccccc1O | 91.3
8. c1ccc(Sc2ccccc2)cc1 | 102
9. CCn1c(=O)n(C)c2c(=O)n(C)c(=O)n(C)c21 | 101
10. COc1ccc(OC)c(/C=C2\CCc3ccccc3C2=O)c1 | 65.4
11. O=C(CN1CCNCC1)N1CCOCC1 | 91.9
12. CC(=O)OCCO | 101
13. CC1(C)S(=O)(=O)OCCOS1(=O)=O | 99.2
14. CCCCNC(=O)C(=O)NCCCC | 105
15. CC(=O)Nc1ccc(NC(C)=O)c2c1C(=O)c1ccccc1C2=O | 92.8
16. CC(=O)OCC1OC(OC2=C(CC=C(C)C)C(=O)c3ccccc3C2=O)C(OC(C)=O)C(OC(C)=O)C1OC(C)=O (stereo not drawn) | 53.6
17. CCCC[P+](c1ccccc1)(c1ccccc1)c1ccccc1 | 43.4
18. N#CC(=Nc1cccc(F)c1)C1=C(O)c2ccccc2C1=O | 85.4
19. CCOC(=O)c1ccc(NC(=S)P(=O)(c2ccccc2)c2ccccc2)cc1 | 107
20. CCC/C=C(/C(C)=O)C(=O)OCC | 91.8
21. CC1CC(O)C2C3(C)CCCC2(COC3=O)C12CCC1(CCOC1=O)O2 (stereo not drawn) | 127
22. CC1CCCCN1C(=S)Nc1ccc(S(=O)(=O)N2CCCCC2)cc1 (stereo not drawn) | 106
23. CCOC(=O)c1cc(/C=C/c2ccc(Cl)cc2Cl)on1 | 24.1
24. COc1ccc(C)cc1OC | 102
25. CC1Cc2ccccc2O1 (stereo not drawn) | 112
26. O=C1c2ccccc2C(=O)N1OCc1ccccc1 | 105
27. c1ccc(/C(=N\N=C(/c2ccccc2)c2cccs2)c2cccs2)cc1 | 95
28. CCOC(=O)C1=C(C)NC(=O)NC1c1cccs1 (stereo not drawn) | 94.1
29. CC(=O)c1ccc(C(C)(C)C)cc1 | 98.3
30. CCS(=O)(=O)c1cc(=O)[nH]c(=O)[nH]1 | 114
31. CC(=O)NCc1cc(C)c(C)cc1C | 104
32. COc1cc(-c2ccc(NC(=O)NC3CC3)c(OC)c2)ccc1NC(=O)NC1CC1 | 57.9
33. c1ccc(CN2COc3c(ccc4c3OCN(Cc3ccccc3)C4)C2)cc1 | 23
34. CN(C)c1ccc(CNC(C(=O)c2ccccc2)c2ccccc2)cc1 (stereo not drawn) | 95.9
35. CCO/C=C1\SC(=S)N(c2cccc(C)c2)C1=O | 101
36. CC(=O)Nc1cccc(NC(C)=O)n1 | 105
37. O=[N+]([O-])c1ccccc1N=Nc1ccc(O)cc1O | 104
38. O=[N+]([O-])c1ccccc1S(=O)c1ccccc1[N+](=O)[O-] | 99.9
39. Cc1cc(C(C)(C)C)cc(C)c1Br | 111
40. c1ccc2c(N3CCCCC3)ncnc2c1 | 94.4
41. C/C(=C\c1cc(Cl)ccc1OCC(=O)O)[N+](=O)[O-] | 100
42. CC(C(=O)O)(C1CCCCC1)C1(O)CCCCC1 (stereo not drawn) | 104
43. O=C(c1ccccc1)C1CCC1 | 99.1
44. S=c1sc2ccccc2n1CN1CCCCC1 | 99.6
45. O=C1N(C[P+](c2ccccc2)(c2ccccc2)c2ccccc2)CCCN1C[P+](c1ccccc1)(c1ccccc1)c1ccccc1 | 99.5
46. CCOc1ccc(Br)cc1/C=N\N=C\c1cc(Br)ccc1OCC | 95.6
47. CNc1nc(NC)c2cn[nH]c2n1 | 111
48. CCOC(=O)c1[nH]c(C)c(C(C)=O)c1C | 96.1
